Target: CXCL3_HUMAN
Assay: BLI
Measurement kind: pKd
The value called pKd is obtained by taking minus log10 of the concentration in mol/L.

Looking for the measured pKd of P943_IXORI (other) RSKQPTASQSSKNSIKAEFCDTNCTQGTNGAWSGCSEGCFCVHVGNNTKGRCMKLSSDYDYTTQ , can you help?
6.57
